Test system: MARK1
Conditions: Compound Concentration (nM):1000;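 further: KINOMEscan scanMAX binding as percent activity remaining versus control; lower means stronger binding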
# Percent Control values compiled below
Respond numerically; units are % and should not be typed.

Answered cases to consult:
| molecule | Percent Control [%] |
| --- | --- |
| COc1cc2ncnc(Nc3ccc4c(cnn4Cc4ccccc4)c3)c2cc1OC.Cl [GW282449A] | 100 |
| COc1ccc2cc(-c3c(-c4ccncc4)nc(-c4ccc(S(C)(=O)=O)cc4C)n3C)ccc2c1 [SB-633825] | 88 |
| CN1CCN(C(=O)c2ccc(NC(=O)Nc3ccc(N(C)c4ccnc(Nc5ccc(CS(C)(=O)=O)cc5)n4)cc3)cc2)CC1.Cl [GW830263A] | 44 |
| Cl.c1ccc(Cc2nc3ccc(Nc4ncnc5ccccc45)cc3[nH]2)cc1 [GR269666A] | 100 |

What does the record list as Percent Control for CCn1c(-c2nonc2N)nc2c(C#CC(C)(C)O)nc(OCCNC)cc21.Cl [GSK949675] ?
100

Try the molecule NS(=O)(=O)c1ccc(N/N=C2\C(=O)Nc3ccc(C(=O)NCCc4c[nH]cn4)cc32)cc1 [GW300660X]
90

Quick one: COc1cc(N2CCN(C(C)C)CC2)ccc1Nc1nc(Nc2ccc(F)cc2C(=O)NC[C@@H](O)CO)c2cc[nH]c2n1 [GSK1392956A]
90

Can you handle Nc1ncnc2occ(-c3ccc(NC(=O)Nc4cc(C(F)(F)F)ccc4F)cc3)c12 [GW770249X] next?
83

Then COc1cccc(-c2c[nH]c3c(N/N=C/c4ccncc4)ncnc23)c1 [GW814408X] ?
89

Moving on to NS(=O)(=O)c1ccc(Nc2ncc(-c3ccccc3)o2)cc1 [GW572399X]
100

----------
System: BRSK2
Details: Compound Concentration (nM):1000
Response field class: string, computed from recorded Percent Control by ranges low class (below 70%), middle class (70% to below 90%), high class (90% or more)

Past entries and their recorded results:
| compound | group |
| --- | --- |
| COc1ccc2c(-c3ccnc(Nc4cccc(OC(F)(F)F)c4)n3)cnn2n1 [GW810372X] | middle class |
| Cl.O=C(Nc1ccc(Oc2ccc3[nH]c(NC(=O)c4ccccc4)nc3c2)cc1)Nc1cc(C(F)(F)F)ccc1F [GW709042A] | middle class |
| Cc1cc(O)cc(C)c1/C=C/c1cncc(C(N)=O)c1 [GW435821X] | low class |
| CCc1ccc(Oc2nccc(-c3c(-c4ccc(F)cc4)ncn3C3CCNCC3)n2)cc1 | high class |
| NS(=O)(=O)c1ccc(N/N=C2\C(=O)Nc3ccc(Cl)cc32)cc1 [GW280670X] | middle class |

Hi, small favor: classify `NS(=O)(=O)c1ccc(N/N=C2\C(=O)Nc3ccc(-c4cnco4)cc32)cc1` by its Percent Control when you get a moment.
low class

----------
System: p38-alpha
Construct: gene MAPK14
Settings: Compound Concentration (nM):1000
measurement_label: Percent Control
Number first, unit second: that is the form wanted.

Some entries whose results are on file:
| molecule | tested_on | Percent Control |
| --- | --- | --- |
| O=C1Nc2ccc(C(=O)c3ccco3)cc2C1=Cc1cc(Cl)c(O)c(Cl)c1 [GW406108X] | p38-alpha | 93% |
| COc1ccc2c(-c3ccnc(Nc4cccc(OC(F)(F)F)c4)n3)cnn2n1 [GW810372X] | p38-alpha | 100% |
| COc1cc2ncnc(Nc3ccc4c(cnn4Cc4ccccc4)c3)c2cc1OC.Cl [GW282449A] | p38-alpha | 100% |

Quick check: Percent Control of COc1cc(N2CCN(C(C)C)CC2)ccc1Nc1nc(Nc2ccc(F)cc2C(=O)NC[C@@H](O)CO)c2cc[nH]c2n1 [GSK1392956A] ?
100%
